# System: HeLa Kyoto
# measurement-description: melting temperature (median over replicates), in situ; higher = more thermally stable
# measurement-context: cell cycle stage: mitosis
measure-name: melting temperature (°C)

>  <seq-text>
MSASVVSVISRFLEEYLSSTPQRLKLLDAYLLYILLTGALQFGYCLLVGTFPFNSFLSGFISCVGSFILAVCLRIQINPQNKADFQGISPERAFADFLFASTILHLVVMNFVG [DAD1]

>  <measure-name>
melting temperature

>  <reported-result>
54.2

$$$$
>  <seq-text>
MQNYKYDKAIVPESKNGGSPALNNNPRRSGSKRVLLICLDLFCLFMAGLPFLIIETSTIKPYHRGFYCNDESIKYPLKTGETINDAVLCAVGIVIAILAIITGEFYRIYYLKKSRSTIQNPYVAALYKQVGCFLFGCAISQSFTDIAKVSIGRLRPHFLSVCNPDFSQINCSEGYIQNYRCRGDDSKVQEARKSFFSGHASFSMYTMLYLVLYLQARFTWRGARLLRPLLQFTLIMMAFYTGLSRVSDHKHHPSDVLAGFAQGALVACCIVFFVSDLFKTKTTLSLPAPAIRKEILSPVDIIDRNNHHNMM [PLPP3]

>  <measure-name>
melting temperature

>  <reported-result>
55.7

$$$$

====

# Test system: HeLa Kyoto
# measurement-description: thermal stability score vs G1/S (z-score of summed log2 fold changes over temperatures); higher = more thermally stable than in G1/S
# measurement-context: cell cycle stage: mitosis
Output satisfied for thermal stability score not less than -0.2; output not satisfied otherwise.

>  <seq-text>
MYPESTTGSPARLSLRQTGSPGMIYSTRYGSPKRQLQFYRNLGKSGLRVSCLGLGTWVTFGGQITDEMAEQLMTLAYDNGINLFDTAEVYAAGKAEVVLGNIIKKKGWRRSSLVITTKIFWGGKAETERGLSRKHIIEGLKASLERLQLEYVDVVFANRPDPNTPMEETVRAMTHVINQGMAMYWGTSRWSSMEIMEAYSVARQFNLTPPICEQAEYHMFQREKVEVQLPELFHKIGVGAMTWSPLACGIVSGKYDSGIPPYSRASLKGYQWLKDKILSEEGRRQQAKLKELQAIAERLGCTLPQLAIAWCLRNEGVSSVLLGASNADQLMENIGAIQVLPKLSSSIIHEIDSILGNKPYSKKDYRS [KCNAB2]

>  <category>
satisfied

$$$$
>  <seq-text>
MAAPKGSLWVRTQLGLPPLLLLTMALAGGSGTASAEAFDSVLGDTASCHRACQLTYPLHTYPKEEELYACQRGCRLFSICQFVDDGIDLNRTKLECESACTEAYSQSDEQYACHLGCQNQLPFAELRQEQLMSLMPKMHLLFPLTLVRSFWSDMMDSAQSFITSSWTFYLQADDGKIVIFQSKPEIQYAPHLEQEPTNLRESSLSKMSYLQMRNSQAHRNFLEDGESDGFLRCLSLNSGWILTTTLVLSVMVLLWICCATVATAVEQYVPSEKLSIYGDLEFMNEQKLNRYPASSLVVVRSKTEDHEEAGPLPTKVNLAHSEI [TMEM59]

>  <category>
not satisfied

$$$$
>  <seq-text>
MAQTPAFDKPKVELHVHLDGSIKPETILYYGRRRGIALPANTAEGLLNVIGMDKPLTLPDFLAKFDYYMPAIAGCREAIKRIAYEFVEMKAKEGVVYVEVRYSPHLLANSKVEPIPWNQAEGDLTPDEVVALVGQGLQEGERDFGVKARSILCCMRHQPNWSPKVVELCKKYQQQTVVAIDLAGDETIPGSSLLPGHVQAYQEAVKSGIHRTVHAGEVGSAEVVKEAVDILKTERLGHGYHTLEDQALYNRLRQENMHFEICPWSSYLTGAWKPDTEHAVIRLKNDQANYSLNTDDPLIFKSTLDTDYQMTKRDMGFTEEEFKRLNINAAKSSFLPEDEKRELLDLLYKAYGMPPSASAGQNL [ADA]

>  <category>
not satisfied

$$$$
>  <seq-text>
MDVLAEANGTFALNLLKTLGKDNSKNVFFSPMSMSCALAMVYMGAKGNTAAQMAQILSFNKSGGGGDIHQGFQSLLTEVNKTGTQYLLRMANRLFGEKSCDFLSSFRDSCQKFYQAEMEELDFISAVEKSRKHINTWVAEKTEGKIAELLSPGSVDPLTRLVLVNAVYFRGNWDEQFDKENTEERLFKVSKNEEKPVQMMFKQSTFKKTYIGEIFTQILVLPYVGKELNMIIMLPDETTDLRTVEKELTYEKFVEWTRLDMMDEEEVEVSLPRFKLEESYDMESVLRNLGMTDAFELGKADFSGMSQTDLSLSKVVHKSFVEVNEEGTEAAAATAAIMMMRCARFVPRFCADHPFLFFIQHSKTNGILFCGRFSSP [SERPINB6]

>  <category>
not satisfied

$$$$
>  <seq-text>
MADGQMPFSCHYPSRLRRDPFRDSPLSSRLLDDGFGMDPFPDDLTASWPDWALPRLSSAWPGTLRSGMVPRGPTATARFGVPAEGRTPPPFPGEPWKVCVNVHSFKPEELMVKTKDGYVEVSGKHEEKQQEGGIVSKNFTKKIQLPAEVDPVTVFASLSPEGLLIIEAPQVPPYSTFGESSFNNELPQDSQEVTCT [HSPB8]

>  <category>
satisfied

$$$$
>  <seq-text>
MVGREKELSIHFVPGSCRLVEEEVNIPNRRVLVTGATGLLGRAVHKEFQQNNWHAVGCGFRRARPKFEQVNLLDSNAVHHIIHDFQPHVIVHCAAERRPDVVENQPDAASQLNVDASGNLAKEAAAVGAFLIYISSDYVFDGTNPPYREEDIPAPLNLYGKTKLDGEKAVLENNLGAAVLRIPILYGEVEKLEESAVTVMFDKVQFSNKSANMDHWQQRFPTHVKDVATVCRQLAEKRMLDPSIKGTFHWSGNEQMTKYEMACAIADAFNLPSSHLRPITDSPVLGAQRPRNAQLDCSKLETLGIGQRTPFRIGIKESLWPFLIDKRWRQTVFH [MAT2B]

>  <category>
not satisfied

$$$$
>  <seq-text>
MVVLSVPAEVTVILLDIEGTTTPIAFVKDILFPYIEENVKEYLQTHWEEEECQQDVSLLRKQAEEDAHLDGAVPIPAASGNGVDDLQQMIQAVVDNVCWQMSLDRKTTALKQLQGHMWRAAFTAGRMKAEFFADVVPAVRKWREAGMKVYIYSSGSVEAQKLLFGHSTEGDILELVDGHFDTKIGHKVESESYRKIADSIGCSTNNILFLTDVTREASAAEEADVHVAVVVRPGNAGLTDDEKTYYSLITSFSELYLPSST [ENOPH1]

>  <category>
satisfied

$$$$
>  <seq-text>
MIEQQKRKGPELPLVPVKRQRHELLLGAGSGPGAGQQQATPGALLQAGPPRCSSLQAPIMLLSGHEGEVYCCKFHPNGSTLASAGFDRLILLWNVYGDCDNYATLKGHSGAVMELHYNTDGSMLFSASTDKTVAVWDSETGERVKRLKGHTSFVNSCYPARRGPQLVCTGSDDGTVKLWDIRKKAAIQTFQNTYQVLAVTFNDTSDQIISGGIDNDIKVWDLRQNKLTYTMRGHADSVTGLSLSSEGSYLLSNAMDNTVRVWDVRPFAPKERCVKIFQGNVHNFEKNLLRCSWSPDGSKIAAGSADRFVYVWDTTSRRILYKLPGHAGSINEVAFHPDEPIIISASSDKRLYMGEIQ [SNRNP40]

>  <category>
not satisfied

$$$$
>  <seq-text>
MCDFTEDQTAEFKEAFQLFDRTGDGKILYSQCGDVMRALGQNPTNAEVLKVLGNPKSDEMNVKVLDFEHFLPMLQTVAKNKDQGTYEDYVEGLRVFDKEGNGTVMGAEIRHVLVTLGEKMTEEEVEMLVAGHEDSNGCINYEAFVRHILSG [MYL6]

>  <category>
not satisfied

$$$$
